target.or.test.system: T1, monkey IL-22BP-His (monkey)
T1 chain: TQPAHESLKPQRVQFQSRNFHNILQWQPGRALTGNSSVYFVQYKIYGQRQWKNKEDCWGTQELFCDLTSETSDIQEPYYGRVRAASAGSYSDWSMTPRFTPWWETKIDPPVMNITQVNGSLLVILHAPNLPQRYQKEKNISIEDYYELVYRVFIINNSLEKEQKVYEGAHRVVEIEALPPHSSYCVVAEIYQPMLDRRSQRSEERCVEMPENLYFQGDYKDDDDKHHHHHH
procedure.summary: direct ELISA on coated monkey IL-22BP-His, purified rat antibody

binder	binding result
rat anti-human IL-22BP antibody rMAb3 (antibody, rat IgG1, V domains shown, Rat IgG1, kappa chain, from hybridoma) VH: EVQLQQSGAELVRPGTSVKLSCKLSGGTISAYFIHFVKQRPGQGLEWIGRIDPEDDSTEYAEKFKNKATLTADTSSNTAYLILGSLTSDDTATYFCTTGSDYWGQGVMVTVSS VL: DVVMTQTPVSLSLAIGQPASISCKSSQSLLGTSGKTFLNWILQRPGQSPKRLIYQVSKLYSGVPDRFSGSGSETEFTLKISRVEAEDLGVYYCWQGTLFPRTFGGGTKLEVKR	binds
rat anti-human IL-22BP antibody rMAb81 (antibody, rat IgG1, V domains shown, Rat IgG1, kappa chain, from hybridoma) VH: EVQLVESGGGLVQPGRSLKLSCLASGFTFSNYGMNWIRQAPGKGLEWVATISSGSSYIYYADTVKGRFTISRENARNTLYLQMTSLRSEDTAFYYCARPLTGAFDYWGQGVMVTVSS VL: DIVLTQSPALAASLGQRATISCRASQSVSTSSHNLMHWYQQKPGHQPKLLIYAASNLASSIPARFSGSGSGTDFTLTINPVQADDIATYYCQQSRELPLTFGSGTKLEIKR	binds
